Source: paper PMC2361176

In this section we review reported IC50 values for a set of compounds.
Biological target: CYP26 (Homo sapiens, UniProt O43174)
Construct: LNCaP cells were incubated with 1 μM ATRA for 24 h to induce the CYP26 enzyme; endogenous in cells; host or cells: LNCaP human prostate cancer cells, pre-treated with 1 μM ATRA
Sequence (O43174 whole entry): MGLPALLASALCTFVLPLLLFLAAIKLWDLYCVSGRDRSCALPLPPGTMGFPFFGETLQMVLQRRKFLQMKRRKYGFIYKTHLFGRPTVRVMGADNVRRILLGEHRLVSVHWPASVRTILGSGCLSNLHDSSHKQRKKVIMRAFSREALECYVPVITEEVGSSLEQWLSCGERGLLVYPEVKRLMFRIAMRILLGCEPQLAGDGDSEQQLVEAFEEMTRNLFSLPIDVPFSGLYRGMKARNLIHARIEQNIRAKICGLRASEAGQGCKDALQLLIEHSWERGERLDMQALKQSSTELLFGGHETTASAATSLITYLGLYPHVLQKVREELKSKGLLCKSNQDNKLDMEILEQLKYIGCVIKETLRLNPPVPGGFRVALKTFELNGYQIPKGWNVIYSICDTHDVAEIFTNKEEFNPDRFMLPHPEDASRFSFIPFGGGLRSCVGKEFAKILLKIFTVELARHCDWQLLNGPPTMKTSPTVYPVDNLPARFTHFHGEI
Experiment: Cellular CYP26 assay: inhibition of ATRA metabolism in intact LNCaP cells
Format: cell-based
Settings: intact LNCaP cells pretreated with 1 μM ATRA; [11,12-3H]-ATRA substrate; HPLC
MEASUREMENT KIND: IC50

1. CC1=C(/C=C/C(C)=C/C=C/C(C)=C\C(=O)Nc2ccc(O)cc2)C(C)(C)CCC1n1ccnc1 (stereo not shown)	90 nM
2. CC1=C(/C=C/C(C)=C/C=C/C(C)=C/C(=O)n2ccnc2)C(C)(C)CCC1n1ccnc1 (stereo not shown)	90 nM
3. CC1=C(/C=C/C(C)=C/C=C/C(C)=C/C(=O)O)C(C)(C)CCC1n1ccnc1 (stereo not shown)	6.5 nM
4. CC1=C(/C=C/C(C)=C/C=C/C(C)=C/C(=O)Nc2ccc(O)cc2)C(C)(C)CCC1n1ccnc1 (stereo not shown)	62.5 nM
